Reference source: PubChem BioAssay AID1814

experiment: Activators via SNCA 5'UTR binding, MLPCN (AID 1814); details: alpha-synuclein 5'UTR reporter, activators screen; stronger effect = lower value; tested at 7.5 µM
The campaign covered roughly 300,000 compounds. About 22,000 (7.3%) were called active. Roughly 2% stayed inconclusive and do not appear here. The entries come from a sample that favours actives as a whole.
result-type: activity score (%)
Give the value, in units of %, as a plain number.

input: Can you share its activity score? I mean this compound: `CC(C)(C)c1ccc(OC2=CS(=O)(=O)c3ccccc32)cc1`
output: -110

input: Can you share its activity score? I mean this compound: `COC(=O)c1c(C)[nH]c(C(=O)/C=C/c2ccc(Cl)cc2)c1C`
output: -131

input: Can you share its activity score? I mean this compound: `CC(=O)Oc1ccc(C(=O)Nc2nccs2)cc1`
output: -98

input: Can you share its activity score? I mean this compound: `Cc1ccc(NC(=O)c2ccc(Oc3ncccn3)cc2)cc1`
output: -124

input: Can you share its activity score? I mean this compound: `CCCc1ccc(-c2csc(NC(=O)Cc3cccs3)n2)cc1`
output: -66.4

input: Can you share its activity score? I mean this compound: `CCC(=C/c1sc2ccc3ccccc3c2[n+]1C)/C=C1\Sc2ccc3ccccc3c2N1C`
output: -122

input: Can you share its activity score? I mean this compound: `CC(C)[C@@H]1COC(c2cccc(C3=N[C@H](C(C)C)CO3)c2)=N1`
output: -152

input: Can you share its activity score? I mean this compound: `Cc1ccc(-c2csc(NC(=O)Cc3cccs3)n2)cc1C`
output: -200

input: Can you share its activity score? I mean this compound: `NC(=O)Nc1ccccc1C(=O)NCCc1ccccc1`
output: -90.2

input: Can you share its activity score? I mean this compound: `COc1ccc(NC(=O)c2sccc2SCC#N)cc1`
output: -77.3

====

assay: Activators via SNCA 5'UTR binding, MLPCN (AID 1814); settings: alpha-synuclein 5'UTR reporter, activators screen; stronger effect = lower value; tested at 7.5 µM
About 22,000 (7.3%) of roughly 300,000 compounds were called active. Inconclusive results (about 2%) are left out. Shown is part of a subset that was picked to be rich in actives.
// values below are reported activity score
Give the value, in units of %, as a plain number.

compound	activity score / %
N/C(=N\OC(=O)CCC1CCCCC1)c1ccccn1	-180
COC(=O)c1ccc(Nc2ncnc3sccc23)cc1	-125
O=C(OCC(=O)c1c[nH]c2ccccc12)c1cccc(O)c1	-220
CNc1nc2c(C)cccn2c(=O)c1C=Nc1ccc(OC)cc1	-108
CC(=O)c1cc(C#N)c(SCC(=O)Nc2nccs2)nc1C	-110
CC(C)(C)NC(=O)Cn1nnc(-c2ccccc2Cl)n1	-117

input: Can you share its activity score? I mean this compound: CC[C@]1(O)CC2CN(CCc3c([nH]c4ccccc34)[C@@](C(=O)OC)(c3cc4c(cc3OC)N(C=O)[C@H]3[C@@](O)(C(=O)OC)[C@H](OC(C)=O)[C@]5(CC)C=CCN6CC[C@]43[C@@H]65)C2)C1 (stereo not given in full)
output: 102

input: Can you share its activity score? I mean this compound: `CC(C)=CCc1c(O)c(CC=C(C)C)c2occ(-c3ccc(O)cc3)c(=O)c2c1O`
output: -75.6

input: Can you share its activity score? I mean this compound: `COc1ccc2c3c1O[C@H]1C[C@@H](O)C=C[C@@]31CCN(C)C2`
output: 62

input: Can you share its activity score? I mean this compound: `Cc1nn(CCOc2ccccc2)c(=O)n1-c1ccccc1F`
output: -99.2
